- Test system: Saccharomyces cerevisiae
- method: protein stability index of tFT-peptide fusion (C-terminal peptide) (PSI (0-1 scale)); higher = more stable (slower turnover)
- measurement.parameters: genetic background: das1 deletion; temperature: 30 C
metric.name: protein stability index
Respond with the number and no other words.

| sequence.record | protein stability index |
| --- | --- |
| MFKFNVHKKSKV [TAD2 C-terminal 12 aa] | 0.72 |
| GAHDDMDNGDDW [LAS17 C-terminal 12 aa] | 0.689 |
| LLRKHVFPSVPK [VFA1 C-terminal 12 aa] | 0.732 |
| INFHSGSIFDAC [ENV11 C-terminal 12 aa] | 0.717 |
| TAEEQEQSACQC [YPT6 C-terminal 12 aa] | 0.686 |
| TSAGSNIFSTGQ [BBP1 C-terminal 12 aa] | 0.699 |
| LTWSLAYSGAFS [ACF2 C-terminal 12 aa] | 0.722 |
| WVRLPTTSHGLD [SPO73 C-terminal 12 aa] | 0.719 |

Data request: Determine from records and report protein stability index for GDDDIDDDDDMI [TVP15 C-terminal 12 aa]
Data returned: 0.691

Data request: Determine from records and report protein stability index for RPMPPIRGPKRR [SMD3 C-terminal 12 aa]
Data returned: 0.688
